melting point by entry:
propertyName: melting point

- compound: "CC(=O)OCc1ccc(S(=O)(=O)c2ccc(C)nc2Nc2c(C)cc(C)cc2C)cc1 [Example 55]"
  propertyName: "melting point"
  recordedResult: "132 to 134 °C"
- compound: "Cc1cc(C)c(Nc2nc(C)ccc2S(=O)(=O)c2ccc(F)c(Cl)c2)c(C)c1 [Example 37]"
  propertyName: "melting point"
  recordedResult: "139 to 141 °C"
- compound: "Cc1cc(C)c(Nc2nc(C)ccc2S(=O)(=O)c2cccc(O)c2)c(C)c1 [Example 57]"
  propertyName: "melting point"
  recordedResult: "196 to 197 °C"
- compound: "COc1ccc(Nc2nc(C)ccc2S(=O)(=O)c2ccc(OCc3ccccc3OC)cc2)c(C)c1 [Example 1]"
  propertyName: "melting point"
  recordedResult: "70 to 72 °C"
- compound: "Cc1cc(C)c(Nc2nc(C)ccc2S(=O)(=O)c2ccc(OCc3ccccc3[N+](=O)[O-])cc2)c(C)c1 [Example 29]"
  propertyName: "melting point"
  recordedResult: "153 to 155 °C"
- compound: "COc1ccccc1COc1ccc(S(=O)(=O)c2ccc(C)nc2Nc2ccc(OC(F)F)cc2Cl)cc1 [Example 5]"
  propertyName: "melting point"
  recordedResult: "124 to 125 °C"
- compound: "CCOc1cccc(S(=O)(=O)c2ccc(C)nc2Nc2c(C)cc(C)cc2C)c1 [Example 58]"
  propertyName: "melting point"
  recordedResult: "96 to 97 °C"
- compound: "COc1cc(COc2cccc(S(=O)(=O)c3ccc(C)nc3Nc3c(C)cc(C)cc3C)c2)cc(OC)c1 [Example 63]"
  propertyName: "melting point"
  recordedResult: "120 to 121 °C"
